Readings of pKd for the listed binders
Target: T1, cyno LAIR-1-ECD (cynomolgus monkey)
T1 construct: Recombinant, expressed in mammalian cells; also called extracellular region of cyno LAIR-1
T1 chain: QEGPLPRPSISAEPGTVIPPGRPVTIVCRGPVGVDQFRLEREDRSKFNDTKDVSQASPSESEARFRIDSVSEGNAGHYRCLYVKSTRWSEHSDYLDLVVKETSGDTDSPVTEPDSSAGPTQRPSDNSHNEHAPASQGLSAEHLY
Assay: SPR (Biacore); antibody captured by anti-Fc; LAIR-1-ECD injected;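 further: Anti-Fc immobilized on a CM5 chip, LAIR-1-ECD (human or cynomolgus) injected at 3.3-10 nM and 25 °C, kinetics fitted by simultaneous global fit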
Scale: pKd equals -log10([C]), with [C] in mol/L.

For orientation, consider the following solved cases.
BINDER	pKd
anti-LAIR-1 antibody 61H4 (antibody, V domains shown, Monoclonal antibody from immunized mice (hybridoma)) VH: EVQLQQSGPEVLKPGASVKISCKASGYTFTDYYYMNWVKQSHGKSLEWIGYIYPNNGATSYNQKFKGKATLTVDKSSSTAYMELRSLTSEDSAVYYCARDGYSSNYYTMDYWGQGTSVTVSS VL: DVQMIQSPSSLSASLGDIVTMTCQASQGTSINLNWFQQKPGKAPKLLIYGASNLEDGVPSRFSGSRYGTDFTLTISSLEDEDMATYFCLQHTYLPYTFGGGTKLEIK	8.02
anti-LAIR-1 antibody 62G10 (antibody, V domains shown, Monoclonal antibody from immunized mice (hybridoma)) VH: EVQLVETGGGLVQPKGSLKLSCATSGFTFNINAMNWVRQAPGKGLEWVARIRTKNNNFATYYADSVKDRFTISRDDSQSMLYLQMNNLKTEDTAMYYCVRGPYFDYWGQGTTLTVSS VL: DIQMTQSPASQSASLGESVTITCLASQTIGTWLAWYQQKPGKSPQLLIYAATSLADGVPSRFSGSGSGTKFSFKISNLQAEDFVTYYCQQLYSTPYTFGGGTKLEIK	8.29

Form field: reported pKd of anti-LAIR-1 antibody 57D12 (antibody, V domains shown, Monoclonal antibody from immunized mice (hybridoma)) VH: QVQLQQSGAELARPGASVNLSCRASGYSFTSFGISWVKQRTGQGLEWIGEIYPRSDNTFYNEKFKGKATLTADKSSSTAYMELRSLTSEDSAVYFCARHFGSSSFDYWGQGTTLTVSS VL: ENVLTQSPPIMAASLGQKVTMTCSASSSVSSIYFHWYQQKSGTSPKPLIHRASNLASGVPARFSGSGSGTSYSLTISSVEAEDDATYYCQQWSGYPLTFGGGTKLEIK
8.14

Hey, just so you know, these numbers are from patent US20220041711A1.
